B1: 1ZHC (parent)
chain: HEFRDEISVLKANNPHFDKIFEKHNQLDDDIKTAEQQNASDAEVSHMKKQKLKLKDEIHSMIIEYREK

variants of: B1; experiment: folding stability dG (cDNA display proteolysis); higher = more stable; conditions: PBS, room temperature
Everything with folding stability dG lower than 0.8 kcal/mol is not satisfied; everything else, including exactly 0.8 kcal/mol, is satisfied.

Determine whether this variant has folding stability dG no lower than 0.8 kcal/mol: HEFRDEISVLKANNPHFDKIFEYHNQLDDDIKTAEQQNASDAEVSHMKKQKLKLKDEIHSMIIEYREK [K23Y] satisfied

// inclusive: folding stability dG at least 0.8 kcal/mol? input: HEFRDEISVLKANNPHFDKIFEKHNQLDDDIRTAEQQNASDAEVSHMKKQKLKLKDEIHSMIIEYREK [K32R] satisfied

Is folding stability dG at least 0.8 kcal/mol? Consider HEFRDEISVLKANNPHFQKIFEKHNQLDDDIKTAEQQNASDAEVSHMKKQKLKLKDEIHSMIIEYREK [D18Q] satisfied

Is folding stability dG for HEFRDEISVLKANNPHFDKIFEKHNQLDDRIKTAEQQNASDAEVSHMKKQKLKLKDEIHSMIIEYREK [D30R] at or above 0.8 kcal/mol? satisfied

In plain terms: is recorded folding stability dG at least 0.8 kcal/mol for HEFRDEISVLKANNPHFDKIFEKHNQLDDDIKTAEQQNASDAEVSHMKKQKLKLKDEIHSMIIEEREK [Y65E] ? not satisfied

Check the entry HEFRDEISVLKANNPHFDKTFEKHNQLDDDIKTAEQQNASDAEVSHMKKQKLKLKDEIHSMIIEYREK [I20T] : does folding stability dG equal or exceed 0.8 kcal/mol? not satisfied

Decide: is the reported value of folding stability dG for HEFRDEISVLKANNPHFDKIFEKHNQLDDDIKTAEQQNASDAEVSHMKKQKLKLQDEIHSMIIEYREK [K55Q] equal to or greater than 0.8 kcal/mol? satisfied

Textbook exercise: given the entry HEFRDEISVLKANNPHFDKIFEKHNQLDDDIKTAEQQQASDAEVSHMKKQKLKLKDEIHSMIIEYREK [N38Q] , state whether its folding stability dG is greater than or equal to 0.8 kcal/mol. not satisfied

Hello, I need to know if HEFRDEISVLKANNPHFDKIFEKHNQLDDDIKGAEQQNASDAEVSHMKKQKLKLKDEIHSMIIEYREK [T33G] has measured folding stability dG not below 0.8 kcal/mol. Thanks! not satisfied

Hello, I need to know if HEFRDECSVLKANNPHFDKIFEKHNQLDDDIKTAEQQNASDAEVSHMKKQKLKLKDEIHSMIIEYREK [I7C] has measured folding stability dG not below 0.8 kcal/mol. Thanks! satisfied

Tell me whether folding stability dG is at least 0.8 kcal/mol here: HEFRDEISVLKANNPHFFKIFEKHNQLDDDIKTAEQQNASDAEVSHMKKQKLKLKDEIHSMIIEYREK [D18F] satisfied

State whether the measured folding stability dG reaches 0.8 kcal/mol, counting equality as reaching it, for HEFRDEIWVLKANNPHFDKIFEKHNQLDDDIKTAEQQNASDAEVSHMKKQKLKLKDEIHSMIIEYREK [S8W] satisfied

Could you verify whether the entry HEFRDEISVLKANNPHFDKIFEKHNQLDDDIKTAEQQNASDAEVSHMKKQKLKLKDEIHGMIIEYREK [S60G] shows folding stability dG of no less than 0.8 kcal/mol? not satisfied

Kindly determine if folding stability dG recorded for HEFRDEISVLKANNPHFDKIFEKHNQLDDDIKTAEQQNASDAEVSHMKKQKLKLSDEIHSMIIEYREK [K55S] is above or exactly 0.8 kcal/mol. satisfied

Is reported folding stability dG greater than or equal to 0.8 kcal/mol here: HEFRDEISVLKANNPHFDKIFEKHNQLDDDIKTAEQQNASDDEVSHMKKQKLKLKDEIHSMIIEYREK [A42D] satisfied

Quick check, folding stability dG >= 0.8 kcal/mol? HEFRDEISVLKANNPHFDKIFEKHNQLDDDIKTAEQQNASDAEVSHMKKQKLKLKDEIHSMHIEYREK [I62H] not satisfied

Kindly determine if folding stability dG recorded for HEFRDEISVLKANNPHFDKIFEKHNQLDDDIKTAEQQNASCAEVSHMKKQKLKLKDEIHSMIIEYREK [D41C] is above or exactly 0.8 kcal/mol. not satisfied

API: above_or_equal(metric=folding stability dG, cutoff=0.8 kcal/mol) for item HEFRDEISVLKANNPHFDKIFEKHNQLDDDIKTAEQQNANDAEVSHMKKQKLKLKDEIHSMIIEYREK [S40N] satisfied

Decide: folding stability dG of HEFRDDISVLKANNPHFDKIFEKHNQLDDDIKTAEQQNASDAEVSHMKKQKLKLKDEIHSMIIEYREK [E6D] >= 0.8 kcal/mol? not satisfied

Is it the case that HEFRDEISVLPANNPHFDKIFEKHNQLDDDIKTAEQQNASDAEVSHMKKQKLKLKDEIHSMIIEYREK [K11P] has folding stability dG reaching or exceeding 0.8 kcal/mol? not satisfied

Quick check, folding stability dG >= 0.8 kcal/mol? HEFRDEISVLKANNPHFDKIFEKHNQLDDDIKTAEQQNESDAEVSHMKKQKLKLKDEIHSMIIEYREK [A39E] not satisfied

Is folding stability dG for HEFRDEISVLKANNPHFDKIFFKHNQLDDDIKTAEQQNASDAEVSHMKKQKLKLKDEIHSMIIEYREK [E22F] at or above 0.8 kcal/mol? not satisfied

Reported folding stability dG at or above 0.8 kcal/mol? HEFRDEISVLKANNPHFDKIFEKHNQLDDDIITAEQQNASDAEVSHMKKQKLKLKDEIHSMIIEYREK [K32I] not satisfied

Can HEFRDEISVLKANNPHFDKIFEKHNQLDDDIKTAEQQNASDAEVSHMKKQKLKLKDEIHSMIIEYRNK [E67N] be said to have folding stability dG at or above 0.8 kcal/mol? satisfied

Kindly determine if folding stability dG recorded for HEFRDEISVLKANNPHFDKIFEKHNQLDDDIKTAEQQNASDAEVSHMKKQKLKLKDEIHSMIIEYRFK [E67F] is above or exactly 0.8 kcal/mol. satisfied
